This collection of values is drawn from paper PMC3094704.

Target: PDE2 (Cavia porcellus)
Sequence (A0A286XUV5 22-936): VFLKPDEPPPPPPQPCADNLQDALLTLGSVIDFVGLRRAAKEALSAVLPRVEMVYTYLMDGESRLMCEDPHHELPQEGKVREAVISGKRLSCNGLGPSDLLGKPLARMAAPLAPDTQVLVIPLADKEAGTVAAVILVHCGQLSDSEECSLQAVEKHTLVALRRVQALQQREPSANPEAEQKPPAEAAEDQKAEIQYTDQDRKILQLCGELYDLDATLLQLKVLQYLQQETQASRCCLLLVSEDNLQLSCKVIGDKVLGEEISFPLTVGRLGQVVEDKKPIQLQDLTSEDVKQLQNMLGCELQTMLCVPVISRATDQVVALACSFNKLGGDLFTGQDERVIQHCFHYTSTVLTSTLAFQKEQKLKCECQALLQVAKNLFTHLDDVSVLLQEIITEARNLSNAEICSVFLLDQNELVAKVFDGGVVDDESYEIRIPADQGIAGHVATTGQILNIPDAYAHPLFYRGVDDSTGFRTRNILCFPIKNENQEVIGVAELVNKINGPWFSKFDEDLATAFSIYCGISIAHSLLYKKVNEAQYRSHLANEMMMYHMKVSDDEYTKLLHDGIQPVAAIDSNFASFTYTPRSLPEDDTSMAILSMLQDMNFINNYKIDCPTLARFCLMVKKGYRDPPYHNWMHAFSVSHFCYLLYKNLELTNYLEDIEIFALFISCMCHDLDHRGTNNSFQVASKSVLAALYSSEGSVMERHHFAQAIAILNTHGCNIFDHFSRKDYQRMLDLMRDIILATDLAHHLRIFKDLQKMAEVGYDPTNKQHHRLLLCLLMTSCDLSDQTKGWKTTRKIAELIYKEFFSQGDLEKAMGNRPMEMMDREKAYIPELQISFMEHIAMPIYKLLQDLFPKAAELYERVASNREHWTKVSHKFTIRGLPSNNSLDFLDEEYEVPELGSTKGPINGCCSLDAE
recordedMetric: IC50 (µM)
One number for each entry, in µM.

Qu. Provide IC50 value for the following compound: CCCCCC[C@@H]([C@@H](C)O)n1cnc2c(N)ncnc21 (racemic)
Ans. 6.5
